target: P. falciparum apicoplast DNA polymerase (Pf-apPOL) (Plasmodium falciparum, UniProt Q8ILY1)
Sequence (Q8ILY1 entry or part of it): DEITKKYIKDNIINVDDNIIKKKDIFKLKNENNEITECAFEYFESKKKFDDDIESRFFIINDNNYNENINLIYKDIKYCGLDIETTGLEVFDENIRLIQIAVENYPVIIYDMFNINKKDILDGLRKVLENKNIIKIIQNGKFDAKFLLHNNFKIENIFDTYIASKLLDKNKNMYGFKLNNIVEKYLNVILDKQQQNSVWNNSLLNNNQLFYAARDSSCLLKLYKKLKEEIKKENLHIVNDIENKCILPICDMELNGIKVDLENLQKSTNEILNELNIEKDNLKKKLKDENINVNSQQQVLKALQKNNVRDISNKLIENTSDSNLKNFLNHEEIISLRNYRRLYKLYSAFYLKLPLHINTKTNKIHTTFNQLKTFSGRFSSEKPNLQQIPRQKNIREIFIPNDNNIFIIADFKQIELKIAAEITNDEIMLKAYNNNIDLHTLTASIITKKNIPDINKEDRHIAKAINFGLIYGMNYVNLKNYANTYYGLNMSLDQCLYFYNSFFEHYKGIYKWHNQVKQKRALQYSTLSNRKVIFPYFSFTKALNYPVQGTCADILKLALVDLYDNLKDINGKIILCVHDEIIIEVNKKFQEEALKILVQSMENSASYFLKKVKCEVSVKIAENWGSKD
protocol: Fluorescence-based high-throughput DNA polymerase assay (molecular beacon), primary screen and dose-response
Format: biochemical
testContext: primary screen value of the 186 hits; unit not given; 90 min, 10 µM
Listed here are molecules together with their documented DNA Pol.
property: DNA Pol

• Nc1ncnc(NC2CCCCC2)c1[N+](=O)[O-] [KU0193018] = 25
• Cc1cc(C)cc(-n2nc3c(c2NC(=O)c2ccco2)CSC3)c1 [KU0055926] = 58
• O=C(Nc1c2c(nn1-c1ccc(Oc3ccccc3)cc1)CSC2)c1ccco1 [KU0055927] = 57
• CN(C)C1C(c2ccccc2)=C(c2ccccc2)SC(c2ccccc2)C1[N+](=O)[O-] (centres unmarked) [KU0268387] = 78
• CCCN1COc2ccc3c(=O)c(-c4ccccc4)coc3c2C1 [KU0199556] = 28
• COCC(=O)Nc1c(-c2cccc(F)c2)nc2cc(C)ccn12 [Molecule 44, COCC(=O)Nc1c(nc2n1ccc(c2)C)c1cccc(c1)F] = 43
• CCOc1cccc2cc(C(=O)Nc3nnc(-c4ccno4)o3)oc12 [Molecule 28, CCOc1cccc2c1oc(c2)C(=O)Nc1nnc(o1)c1ccno1] = 79
• CCCCSc1nnc2c(n1)OC(c1ccc([N+](=O)[O-])o1)Nc1ccccc1-2 (centres unmarked) [KU0065811] = 52

---

target: P. falciparum apicoplast DNA polymerase (Pf-apPOL) (Plasmodium falciparum, UniProt Q8ILY1)
protocol: Fluorescence-based high-throughput DNA polymerase assay (molecular beacon), primary screen and dose-response
Format: biochemical
testContext: DRC-1; 10'; concentration 10
Description: The HT assay employs a molecular beacon, a stem-loop DNA template with a Cy3 dye and the Black Hole Quencher on the 3′ and 5′ ends of the DNA, respectively. Pf-apPOL concentration is based on a calculated absorptivity of ε280 = 56750 M^−1 cm^−1. […] To identify apPOL inhibitors we utilised our previously developed high-throughput DNA polymerase assay. […] The assay accurately recapitulates the kinetic behaviour of apPOL, as measured through more conventional low-throughput gel-based assays. […]
Listed here are compounds together with their documented % inhibition Apo pol 10'.
property: % inhibition Apo pol 10'

* CN1CC(=Cc2ccco2)C(=O)C(=Cc2ccco2)C1 | 54.6654%
* Cc1ccc(NC(=O)C2CCN(C(=O)c3cc4ccsc4[nH]3)CC2)c(Br)c1 | 68%
* CC1=NNC(=O)C1Oc1ccc(Cl)cc1Cl (stereo not shown) | 21.6096%
* Cc1ccc(C)n1-c1ccc(C(=O)NNC(=O)c2ccc3nccnc3c2)cc1 | 19.7971%

---

target: P. falciparum apicoplast DNA polymerase (Pf-apPOL) (Plasmodium falciparum, UniProt Q8ILY1)
protocol: Fluorescence-based high-throughput DNA polymerase assay (molecular beacon), primary screen and dose-response
Assay type: biochemical
testContext: DRC-1; 90'; concentration 80
Listed here are compounds together with their documented % inhibition Apol 90'.
property: % inhibition Apol 90' (%)

- O=c1cc(CN2CCCCC2)c2cc3c(cc2o1)OCO3: 90.5438
- O=C(CSc1nnc(-c2ccco2)[nH]1)c1ccc(Cl)cc1: 79.1006
- O=C1C(=Cc2ccccc2O)Oc2ccc(O)cc21: 77.3146
- O=C(NNC(=O)c1ccc(Cl)cc1)C(=O)NNC(=O)c1ccc(Cl)cc1: 69.6376
- O=C(Cn1ccc2c(=O)[nH]ccc21)Nc1cc(F)ccc1F [Molecule 42, O=C(Cn1ccc2c1cc[nH]c2=O)Nc1cc(F)ccc1F]: 77.7263
- O=C(O)CCS(=O)(=O)c1ccc(-c2ccc(S(=O)(=O)CCC(=O)O)cc2)cc1: 79.0648
- CSC(C)C(=O)C=CN(C)C (stereo not drawn): 61.3008
- N#Cc1c(C2CCCCC2)nc(Sc2ccc(C(F)(F)F)cc2[N+](=O)[O-])[nH]c1=O: 98.5408
- O=C(Nc1cccc(Cl)c1)Nc1nnc(-c2ccncc2)s1: 86.1912
- N#CC(=NNc1cc(C(F)(F)F)cc(C(F)(F)F)c1)C(=O)c1ccco1: 77.3906
- CCCCC(=O)N1CCc2c(nc3cc(-c4ccccc4Cl)[nH]n3c2=O)C1: 81.0911
- CCOC(=O)C1=C2c3cc(OC)c(OC)cc3CC(C)(C)N2C(=O)C1=O: 80.3053
- CCCCCCCCCCCC1SCC(C(=O)O)N1C(C)=O (stereo not drawn): 88.679
- O=C1N/C(=N/c2ccccc2Cl)S/C1=C/c1ccc([N+](=O)[O-])o1: 84.7542
- Cc1ccc(C)c(CSc2nc(C3CCCCC3)c(C#N)c(=O)[nH]2)c1: 97.7776
- CC(NC(=O)Cc1cc(=O)[nH]c(SCc2cccc(Cl)c2)n1)c1ccccc1 (stereo not drawn): 80.0323
- O=C(Nc1c2c(nn1-c1ccc(Oc3ccccc3)cc1)CSC2)c1ccco1: 86.0743
- COCC(=O)Nc1c(-c2cccc(F)c2)nc2cc(C)ccn12: 86.4562
- CCN1C(=O)C(=Cc2cccc(OC)c2O)SC1=S: 61.7186
- CCCCSc1nnc2c(n1)OC(c1ccc([N+](=O)[O-])o1)Nc1ccccc1-2 (stereo not drawn): 83.7363
- Cc1cccc2c(C(=O)NC(C)C)cc(N(C)C)nc12: 75.4674
- COc1ccccc1CCC(=O)N1CCc2c(nc3cc(-c4ccccc4)[nH]n3c2=O)C1: 63
- Cc1ccc(NC(=O)Cn2ccc3c(=O)[nH]ccc32)cc1F [Molecule 48, O=C(Cn1ccc2c1cc[nH]c2=O)Nc1ccc(c(c1)F)C]: 79.6602
- Cc1nc(/N=N/c2ccc(C(=O)[O-])cc2)c(COP(=O)([O-])[O-])c(C=O)c1O.[Na+].[Na+].[Na+]: 75.4152
- CN(C)C=CC(=O)c1ccccn1: 65.606
- O=C(NC(C(Cl)Cl)S(=O)(=O)c1ccccc1)c1ccccc1 (stereo not drawn): 76.3715
- O=C(c1c[nH]c2ncccc12)N1CCCC1 [Molecule 63, O=C(c1c[nH]c2c1cccn2)N1CCCC1]: 77.404
- Nc1c(S(=O)(=O)O)cc(Nc2ccccc2)c2c1C(=O)c1ccccc1C2=O: 99.716
- O=C(Cc1cc(=O)[nH]c(SCc2ccccc2)n1)Nc1ccc2c(c1)OCO2: 82.3218
- Cc1ccc(NC(=O)C2CCN(C(=O)c3cc4ccsc4[nH]3)CC2)c(Br)c1: 84
- COc1ccc(S(=O)(=O)/N=C2\NC(=O)/C(=C3\C(=O)Nc4ccc([N+](=O)[O-])cc43)S2)cc1: 99.0869
- O=C(O)CC1=NN(c2cccc([N+](=O)[O-])c2)C(=O)C1: 68.1347
- O=C(Nc1ncc([N+](=O)[O-])s1)c1ccc2c(c1)C(=O)N(N1C(=O)c3ccccc3C1=O)C2=O: 63.8905

---

target: P. falciparum apicoplast DNA polymerase (Pf-apPOL) (Plasmodium falciparum, UniProt Q8ILY1)
protocol: Fluorescence-based high-throughput DNA polymerase assay (molecular beacon), primary screen and dose-response;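 on % inhibition apPOL 180': test concentration in µM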
Format: biochemical
testContext: DRC-1; 180'; concentration 20
Listed here are molecules together with their documented % inhibition apPOL 180'.
property: % inhibition apPOL 180' (%)

• NC(=O)c1cc[n+](CC2=C(C(=O)[O-])N3C(=O)[C@@H](NC(=O)[C@@H](c4ccccc4)S(=O)(=O)[O-])[C@H]3SC2)cc1.[Na+] = 84.7929
• O=C(CSc1nnc(-c2ccncc2)[nH]1)c1ccc(O)c(O)c1 = 76.8269
• O=C(Cn1ccc2c(=O)[nH]ccc21)Nc1cc(F)ccc1F [Molecule 42, O=C(Cn1ccc2c1cc[nH]c2=O)Nc1cc(F)ccc1F] = 34.5428
• O=C(O)c1cccc(N2N=C(C(F)(F)F)/C(=C/c3ccc(-c4ccccc4[N+](=O)[O-])o3)C2=O)c1 = 77.5112
• O=C(Nc1nnc(-c2cccs2)o1)c1ccc([N+](=O)[O-])o1 = 5.086
• COc1ccc(-c2c(C(F)(F)F)nn3c(=O)cc(-c4cccc([N+](=O)[O-])c4)[nH]c23)cc1 = 87.8097
• Cc1ccc(CCNC(=O)c2cnn3c(O)c(Cc4ccccc4F)c(C)nc23)cc1 = 23.0268
• O=c1[nH]c2ccc(Br)cc2c(-c2ccccc2)c1C1=NNC(c2ccco2)C1 (stereo not drawn) = 40.539
• O=C(Cn1ccc2c(=O)[nH]ccc21)Nc1ccc(Cl)cc1 [Molecule 36, O=C(Cn1ccc2c1cc[nH]c2=O)Nc1ccc(cc1)Cl] = 61.1275
• O=c1cc(-c2ccccc2Cl)oc2c(NS(=O)(=O)c3cc(Cl)cc(Cl)c3O)ccc(O)c12 = 7.115
• O=C1c2ccccc2C(=O)N1Oc1ccc([N+](=O)[O-])c([N+](=O)[O-])c1 = 17.0641
• O=C(NNC(=O)c1ccc(Cl)cc1)C(=O)NNC(=O)c1ccc(Cl)cc1 = 50.6657
• Cc1ccc(-n2nnc(C(=O)O)c2-c2ccccn2)c(F)c1 = 21.3721
• CN(C)C=CC(=O)c1ccccn1 = 21.4909
• O=C(O)C(=O)Nc1nc(-c2ccc3c(c2)OCCO3)cs1 = 13.4628
